Quick reference for solubility among some molecules
Assay: Solubility in SIF solution
Type: physicochemical

| compound-string | solubility |
| --- | --- |
| COc1c(O)c(CN2CCN(C)CC2)c2c(c1O)[C@@H]1O[C@H](CO)[C@@H](O)[C@H](O)[C@H]1OC2=O | > 1500 µg/mL |

# ---- query molecule ----
Ask: Fill in reported solubility for this entry: `CCN(CC)Cc1c(O)c(OC)c(O)c2c1C(=O)O[C@@H]1[C@@H](O)[C@H](O)[C@@H](CO)O[C@@H]21`
Result: > 1500 µg/mL

---

Test: Efflux ratio in human Caco2 cells
Type: ADME, cell-based
Conditions: Caco-2
measurement-name: efflux ratio
Give the figure only, with no unit attached.

Ask: Fill in reported efflux ratio for this entry: `CCN(CC)Cc1c(O)c(OC)c(O)c2c1C(=O)O[C@@H]1[C@@H](O)[C@H](O)[C@@H](CO)O[C@@H]21`
Result: 2.2

---

Assay: Apparent permeability from basolateral to apical side in human Caco2 cells
Assay type: ADME, cell-based
Details: Caco-2
measurement-name: Papp B→A (×10⁻⁶ cm/s)
# unit: ×10⁻⁶ cm/s | format: bare number

Ask: Fill in reported Papp B→A for this entry: `CCN(CC)Cc1c(O)c(OC)c(O)c2c1C(=O)O[C@@H]1[C@@H](O)[C@H](O)[C@@H](CO)O[C@@H]21`
Result: 1.59

---

Molecular target: CYP2C9 (Homo sapiens, UniProt P11712)
Sequence (P11712 whole entry): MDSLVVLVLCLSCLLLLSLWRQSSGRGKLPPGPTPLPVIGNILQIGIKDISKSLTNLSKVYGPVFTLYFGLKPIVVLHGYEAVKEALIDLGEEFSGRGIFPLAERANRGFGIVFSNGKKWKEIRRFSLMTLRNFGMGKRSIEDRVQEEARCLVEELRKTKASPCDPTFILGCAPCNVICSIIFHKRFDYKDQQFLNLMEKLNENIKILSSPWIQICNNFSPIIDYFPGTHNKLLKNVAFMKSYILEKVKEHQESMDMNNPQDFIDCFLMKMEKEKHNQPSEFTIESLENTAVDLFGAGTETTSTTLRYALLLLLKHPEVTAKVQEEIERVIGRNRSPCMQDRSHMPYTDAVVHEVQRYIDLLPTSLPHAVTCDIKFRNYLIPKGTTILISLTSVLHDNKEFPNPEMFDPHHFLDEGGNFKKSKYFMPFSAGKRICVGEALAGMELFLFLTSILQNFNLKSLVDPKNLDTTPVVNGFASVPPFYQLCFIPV
Assay: Inhibition of CYP2C9 (unknown origin) at 10 uM
Assay type: ADME
measurement-name: inhibition at 10 µM (%)
# unit: % | format: bare number

Ask: Fill in reported inhibition at 10 µM for this entry: `CCN(CC)Cc1c(O)c(OC)c(O)c2c1C(=O)O[C@@H]1[C@@H](O)[C@H](O)[C@@H](CO)O[C@@H]21`
Result: 32

---

Tested on: B-cell
Assay: Inhibition of LPS-induced cell proliferation of B cells (unknown origin) at 10 uM after 72 hrs by MTT assay
Format: functional
measurement-name: inhibition at 10 µM (%)
# unit: % | format: bare number

For orientation, consider the following solved cases.
| molecule | target-or-system | inhibition at 10 µM (%) |
| --- | --- | --- |
| COc1c(O)c(CN2C[C@@H](O)CC2C(=O)O)c2c(c1O)[C@@H]1O[C@H](CO)[C@@H](O)[C@H](O)[C@H]1OC2=O (some centres not stated) | B-cell | 11.4 |
| CCOC(=O)N1CCN(Cc2c(O)c(OC)c(O)c3c2C(=O)O[C@@H]2[C@@H](O)[C@H](O)[C@@H](CO)O[C@@H]32)CC1 | B-cell | 9 |
| CCN(CC)Cc1c(O)c(OC)c(O)c2c1C(=O)O[C@@H]1[C@@H](O)[C@H](O)[C@@H](CO)O[C@@H]21 | B-cell | 47.9 |
| CCN1CCN(Cc2c(O)c(OC)c(O)c3c2C(=O)O[C@@H]2[C@@H](O)[C@H](O)[C@@H](CO)O[C@@H]32)CC1 | B-cell | 44.2 |
| COc1c(O)c(CN2CCN(C)CC2)c2c(c1O)[C@@H]1O[C@H](CO)[C@@H](O)[C@H](O)[C@H]1OC2=O | B-cell | 49 |
| COc1c(O)c(CN2CCOCC2)c2c(c1O)[C@@H]1O[C@H](CO)[C@@H](O)[C@H](O)[C@H]1OC2=O | B-cell | 31.6 |

Ask: Report the value of inhibition at 10 µM obtained on B-cell for `COc1c(O)c(CN2CCC(Cc3ccccc3)CC2)c2c(c1O)[C@@H]1O[C@H](CO)[C@@H](O)[C@H](O)[C@H]1OC2=O` .
Result: 18.2

---

Target: CYP3A4 (Homo sapiens, UniProt P08684)
Sequence (P08684 whole entry): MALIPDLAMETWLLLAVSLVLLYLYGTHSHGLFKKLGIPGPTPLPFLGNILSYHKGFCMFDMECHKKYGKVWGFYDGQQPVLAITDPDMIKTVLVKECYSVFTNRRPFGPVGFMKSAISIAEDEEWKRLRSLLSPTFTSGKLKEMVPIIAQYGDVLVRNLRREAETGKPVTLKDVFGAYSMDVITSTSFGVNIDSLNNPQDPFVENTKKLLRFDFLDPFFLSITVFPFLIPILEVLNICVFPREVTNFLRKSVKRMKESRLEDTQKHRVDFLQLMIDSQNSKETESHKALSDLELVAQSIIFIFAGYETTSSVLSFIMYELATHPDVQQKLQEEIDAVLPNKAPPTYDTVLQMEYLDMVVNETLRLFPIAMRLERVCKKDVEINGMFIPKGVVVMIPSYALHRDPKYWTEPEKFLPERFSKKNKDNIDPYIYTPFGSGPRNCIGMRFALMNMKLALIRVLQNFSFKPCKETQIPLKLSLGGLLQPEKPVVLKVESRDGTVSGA
Experiment: Inhibition of CYP3A4 (unknown origin) at 10 uM
Type: ADME
measurement-name: inhibition at 10 µM (%)
# unit: % | format: bare number

Ask: Report the value of inhibition at 10 µM obtained on CYP3A4 (Homo sapiens, UniProt P08684) for `CCN(CC)Cc1c(O)c(OC)c(O)c2c1C(=O)O[C@@H]1[C@@H](O)[C@H](O)[C@@H](CO)O[C@@H]21` .
Result: 15

---

Test system: B-cell
Test: Inhibition of LPS-induced cell proliferation of B cells (unknown origin) at 10 uM after 72 hrs by MTT assay
Assay type: functional
Quick reference for inhibition at 10 µM among some molecules
# unit: % | format: bare number

For orientation, consider the following solved cases.
| molecule | recorded-value |
| --- | --- |
| COc1c(O)c(CN2CCC(c3ccccc3)CC2)c2c(c1O)[C@@H]1O[C@H](CO)[C@@H](O)[C@H](O)[C@H]1OC2=O | 28.2 |
| COc1c(O)c(CN2CCCC2)c2c(c1O)[C@@H]1O[C@H](CO)[C@@H](O)[C@H](O)[C@H]1OC2=O | 2.5 |
| CCCN(CCC)Cc1c(O)c(OC)c(O)c2c1C(=O)O[C@@H]1[C@@H](O)[C@H](O)[C@@H](CO)O[C@@H]21 | 2.8 |
| COc1c(O)c(CN2CCCCC2)c2c(c1O)[C@@H]1O[C@H](CO)[C@@H](O)[C@H](O)[C@H]1OC2=O | 34.8 |
| COc1c(O)c(CN(C)C)c2c(c1O)[C@@H]1O[C@H](CO)[C@@H](O)[C@H](O)[C@H]1OC2=O | 44 |

Ask: Fill in reported inhibition at 10 µM for this entry: `COc1c(O)c(CN(C)CC(=O)O)c2c(c1O)[C@@H]1O[C@H](CO)[C@@H](O)[C@H](O)[C@H]1OC2=O`
Result: 17

Ask: Fill in reported inhibition at 10 µM for this entry: COc1c(O)cc2c(c1O)[C@@H]1O[C@H](CO)[C@@H](O)[C@H](O)[C@H]1OC2=O [BERGENIN]
Result: 51.2

Ask: Fill in reported inhibition at 10 µM for this entry: `COc1c(O)c(CN2CCC[C@H]2C(=O)O)c2c(c1O)[C@@H]1O[C@H](CO)[C@@H](O)[C@H](O)[C@H]1OC2=O`
Result: 28.2

Ask: Fill in reported inhibition at 10 µM for this entry: C[C@H]1C[C@H]2[C@@H]3CCC4=CC(=O)C=C[C@]4(C)[C@@]3(F)[C@@H](O)C[C@]2(C)[C@@]1(O)C(=O)CO [BETAMETHASONE]
Result: 28.1

Ask: Fill in reported inhibition at 10 µM for this entry: `COc1c(O)c(CN2CCC[C@H]2CO)c2c(c1O)[C@@H]1O[C@H](CO)[C@@H](O)[C@H](O)[C@H]1OC2=O`
Result: 31.6

---

Target: CYP2C19 (Homo sapiens, UniProt P33261)
Sequence (P33261 whole entry): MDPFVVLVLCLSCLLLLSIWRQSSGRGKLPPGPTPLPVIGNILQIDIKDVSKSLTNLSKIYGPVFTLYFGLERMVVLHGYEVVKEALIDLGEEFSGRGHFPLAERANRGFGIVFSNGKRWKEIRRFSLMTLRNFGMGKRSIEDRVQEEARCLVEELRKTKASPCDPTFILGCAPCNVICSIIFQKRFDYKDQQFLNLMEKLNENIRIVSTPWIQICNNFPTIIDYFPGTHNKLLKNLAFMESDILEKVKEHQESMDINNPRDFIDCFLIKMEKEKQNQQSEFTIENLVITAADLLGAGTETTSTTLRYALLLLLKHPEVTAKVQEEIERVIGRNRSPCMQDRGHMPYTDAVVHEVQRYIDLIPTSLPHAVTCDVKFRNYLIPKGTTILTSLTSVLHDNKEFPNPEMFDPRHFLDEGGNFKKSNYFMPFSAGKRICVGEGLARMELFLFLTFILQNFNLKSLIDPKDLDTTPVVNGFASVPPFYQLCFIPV
Assay: Inhibition of CYP2C19 (unknown origin) at 10 uM
Type: ADME
measurement-name: inhibition at 10 µM (%)
# unit: % | format: bare number

Ask: Fill in reported inhibition at 10 µM for this entry: `CCN(CC)Cc1c(O)c(OC)c(O)c2c1C(=O)O[C@@H]1[C@@H](O)[C@H](O)[C@@H](CO)O[C@@H]21`
Result: 6

---

Assay: Apparent permeability from apical to basolateral side in human Caco2 cells
Type: ADME, cell-based
Details: Caco-2
measurement-name: Papp A→B (×10⁻⁶ cm/s)
# unit: ×10⁻⁶ cm/s | format: bare number

Ask: Fill in reported Papp A→B for this entry: `CCN(CC)Cc1c(O)c(OC)c(O)c2c1C(=O)O[C@@H]1[C@@H](O)[C@H](O)[C@@H](CO)O[C@@H]21`
Result: 0.72

---

System: THP-1
Test: Cytotoxicity against human THP1 cells after 24 hrs by MTT assay
Format: cell-based
Conditions: THP-1, 24 h
Quick reference for IC50 among some molecules
# unit: µM | format: bare number

For orientation, consider the following solved cases.
| compound-string | target-or-system | recorded-value |
| --- | --- | --- |
| COc1c(O)cc2c(c1O)[C@@H]1O[C@H](CO)[C@@H](O)[C@H](O)[C@H]1OC2=O | THP-1 | 130 |
| CCN(CC)Cc1c(O)c(OC)c(O)c2c1C(=O)O[C@@H]1[C@@H](O)[C@H](O)[C@@H](CO)O[C@@H]21 | THP-1 | 110 |

# ---- query molecule ----
Ask: Fill in reported IC50 for this entry: `COc1c(O)c(CN2CCN(C)CC2)c2c(c1O)[C@@H]1O[C@H](CO)[C@@H](O)[C@H](O)[C@H]1OC2=O`
Result: 107

---

Assay: Solubility in SGF solution
Format: physicochemical
measurement-name: solubility

| compound-string | recorded-value |
| --- | --- |
| COc1c(O)c(CN2CCN(C)CC2)c2c(c1O)[C@@H]1O[C@H](CO)[C@@H](O)[C@H](O)[C@H]1OC2=O | > 1500 µg/mL |

# ---- query molecule ----
Ask: Fill in reported solubility for this entry: `CCN(CC)Cc1c(O)c(OC)c(O)c2c1C(=O)O[C@@H]1[C@@H](O)[C@H](O)[C@@H](CO)O[C@@H]21`
Result: > 1500 µg/mL
